System Tested: Human BCL-XL protein (N-terminal HiBiT tagged BCL-XL in HT1080 cells) (Homo sapiens)
Construct: expressed in transfected cells; host or cells: HT-1080 (ATCC CCL-121), stably transduced with lentivirus pLV-UBC-N-HiBiT-BCL-XL-PGK-puro and selected with puromycin
Test Details: HiBiT based degradation assay
Assay type: cell-based
Experimental Parameters: BCL-XL degradation normalized with DMSO control; HT1080 cells expressing HiBiT-BCL-XL; 24 h

| Molecule | Ymin (24 h) |
| --- | --- |
| Cc1cc(OCCCN2C[C@@H](C)N(CC(=O)N3CCN(c4ccc5c(C6CCC(=O)NC6=O)nn(C)c5c4)CC3)[C@@H](C)C2)ccc1-c1ccc(N2CCc3cccc(C(=O)Nc4nc5ccccc5s4)c3C2)nc1C(=O)O (stereo partly drawn) [Compound 154a] | A (Ymin < 50%) |
| Cc1c(OCCC2CCN(CC(=O)Nc3ccc4c(C5CCC(=O)NC5=O)nn(C)c4c3)CC2)cccc1-c1ccc(N2CCc3cccc(C(=O)Nc4nc5ccccc5s4)c3C2)nc1C(=O)O (stereo not drawn) | A (Ymin < 50%) |
| Cc1c(OCCCC2CCN(CCCOc3ccc4c(C5CCC(=O)NC5=O)nn(C)c4c3)CC2)cccc1-c1ccc(N2CCc3cccc(C(=O)Nc4nc5ccccc5s4)c3C2)nc1C(=O)O (stereo not drawn) | A (Ymin < 50%) |

* * *

System Tested: Human BCL-XL protein (N-terminal HiBiT tagged BCL-XL in HT1080 cells) (Homo sapiens)
Construct: expressed in transfected cells; host or cells: HT-1080 (ATCC CCL-121), stably transduced with lentivirus pLV-UBC-N-HiBiT-BCL-XL-PGK-puro and selected with puromycin
Test Details: HiBiT based degradation assay
Format: cell-based
Experimental Parameters: BCL-XL degradation normalized with DMSO control; HT1080 cells expressing HiBiT-BCL-XL; 24 h
Experimental: Human BCL-XL protein coding open reading frame fused with N-terminal HiBiT coding sequence was synthesized from Integrated DNA Technologies (IDT). […] HT1080 cells expressing N-terminal HiBiT tagged BCL-XL were dispensed into a 384-well plate pre-spotted with compounds at varying concentrations. […] After incubation, luminescence was read on a PHERAstar FSX Plate Reader (BMG). […]

| Compound | Ymin (24 h) |
| --- | --- |
| Cc1cc(OCCCC2(C)CCN(CC(=O)Nc3ccc4c(C5CCC(=O)NC5=O)nn(C)c4c3)CC2)ccc1-c1ccc(N2CCc3cccc(C(=O)Nc4nc5ccccc5s4)c3C2)nc1C(=O)O (centres unmarked) | A (Ymin < 50%) |
| Cc1c(OCCCN2CCN(CC(=O)Nc3cccc4c(C5CCC(=O)NC5=O)nn(C)c34)[C@H](C(F)(F)F)C2)cccc1-c1ccc(N2CCc3cccc(C(=O)Nc4nc5ccccc5s4)c3C2)nc1C(=O)O (some centres unmarked) [Compound 218b] | C (Ymin ≥ 70%) |
| Cc1c(O[C@H]2CC[C@H](CCCN3CCN(c4cccc5c(C6CCC(=O)NC6=O)nn(C)c45)C[C@@H]3C)CC2)cccc1-c1ccc(N2CCc3cccc(C(=O)Nc4nc5ccccc5s4)c3C2)nc1C(=O)O (some centres unmarked) [Compound 275b] | C (Ymin ≥ 70%) |
| Cc1c(OCCC[C@@H]2CCN(CC(=O)Nc3ccc4c(C5CCC(=O)NC5=O)nn(C)c4c3)[C@H](C)C2)cccc1-c1ccc(N2CCc3cccc(C(=O)Nc4nc5ccccc5s4)c3C2)nc1C(=O)O (some centres unmarked) [Compound 343a] | A (Ymin < 50%) |

* * *

Items are presented alongside their recorded DC50.
System Tested: Human BCL-XL protein (N-terminal HiBiT tagged BCL-XL in HT1080 cells) (Homo sapiens, UniProt Q07817)
Construct: expressed in transfected cells; host or cells: HT-1080 (ATCC CCL-121), stably transduced with lentivirus pLV-UBC-N-HiBiT-BCL-XL-PGK-puro and selected with puromycin
Sequence (Q07817 whole entry): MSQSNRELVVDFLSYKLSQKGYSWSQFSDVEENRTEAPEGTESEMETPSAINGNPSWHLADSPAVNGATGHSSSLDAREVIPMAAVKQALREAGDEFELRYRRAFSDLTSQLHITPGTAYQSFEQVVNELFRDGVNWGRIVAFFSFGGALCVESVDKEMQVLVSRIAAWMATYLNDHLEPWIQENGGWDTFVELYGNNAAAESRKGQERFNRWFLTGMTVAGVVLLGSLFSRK
Test Details: HiBiT based degradation assay
Format: cell-based
Experimental Parameters: BCL-XL degradation; HT1080 cells expressing HiBiT-BCL-XL; 6 h; read-out: EC50 (6 h)

| Molecule | DC50 |
| --- | --- |
| Cc1c(OCCCN2CCN(CC(=O)Nc3ccc4c(C5CCC(=O)NC5=O)nn(C)c4c3)[C@@H](C(F)(F)F)C2)cccc1-c1ccc(N2CCc3cccc(C(=O)Nc4nc5ccccc5s4)c3C2)nc1C(=O)O (stereo partly shown) [Compound 187b] | < 100 nM |
| Cc1c(Oc2ccccc2CCC(=O)Nc2cccc3c(C4CCC(=O)NC4=O)nn(C)c23)cccc1-c1ccc(N2CCc3cccc(C(=O)Nc4nc5ccccc5s4)c3C2)nc1C(=O)O (stereo not shown) | 100 to 1000 nM |
| Cc1c(-c2ccc(N3CCc4cccc(C(=O)Nc5nc6ccccc6s5)c4C3)nc2C(=O)NCCCCCCCC(=O)Nc2ccc3c(C4CCC(=O)NC4=O)nn(C)c3c2)cnn1CC12CC3CC(CC(C3)C1)C2 (stereo not shown) | < 100 nM |

Exercise: What does the data say about its DC50? Entry: Cc1c(OCC2CC3(CCN(CC(=O)Nc4cccc5c(C6CCC(=O)NC6=O)nn(C)c45)CC3)C2)cccc1-c1ccc(N2CCc3cccc(C(=O)Nc4nc5ccccc5s4)c3C2)nc1C(=O)O (stereo not shown)
Key: < 100 nM

Exercise: Can you handle Cc1c(OCCCN2CCN(CCOc3ccc4c(C5CCC(=O)NC5=O)nn(C)c4c3)CC2)cccc1-c1ccc(N2CCc3cccc(C(=O)Nc4nc5ccccc5s4)c3C2)nc1C(=O)O (stereo not shown) next?
Key: 100 to 1000 nM

* * *

System Tested: Human BCL-XL protein (N-terminal HiBiT tagged BCL-XL in HT1080 cells) (Homo sapiens, UniProt Q07817)
Construct: expressed in transfected cells; host or cells: HT-1080 (ATCC CCL-121), stably transduced with lentivirus pLV-UBC-N-HiBiT-BCL-XL-PGK-puro and selected with puromycin
Test Details: HiBiT based degradation assay
Assay type: cell-based
Experimental Parameters: BCL-XL degradation normalized with DMSO control; HT1080 cells expressing HiBiT-BCL-XL; 24 h
Result Type: Ymin (24 h)

| Molecule | Result Type | Value Measured |
| --- | --- | --- |
| Cc1cc(O[C@H]2CC[C@H](CCC(=O)N3CCN(c4cccc5c(C6CCC(=O)NC6=O)nn(C)c45)CC3)CC2)ccc1-c1ccc(N2CCc3cccc(C(=O)Nc4nc5ccccc5s4)c3C2)nc1C(=O)O (stereo partly shown) [Compound 252a] | Ymin (24 h) | A (Ymin < 50%) |
| Cc1c(O[C@H]2CC[C@H](CCCCN3CCN(c4ccc5c(C6CCC(=O)NC6=O)nn(C)c5c4)CC3(C)C)CC2)cccc1-c1ccc(N2CCc3cccc(C(=O)Nc4nc5ccccc5s4)c3C2)nc1C(=O)O (stereo partly shown) [Compound 323a] | Ymin (24 h) | A (Ymin < 50%) |
| Cc1c(O[C@H]2CC[C@H](CCCN3CC[C@@H](c4cccc5c(C6CCC(=O)NC6=O)nn(C)c45)C3)CC2)cccc1-c1ccc(N2CCc3cccc(C(=O)Nc4nc5ccccc5s4)c3C2)nc1C(=O)O (single isomer, unassigned) [Compound 320b] | Ymin (24 h) | A (Ymin < 50%) |

* * *

System Tested: Human BCL-XL protein (N-terminal HiBiT tagged BCL-XL in HT1080 cells) (Homo sapiens, UniProt Q07817)
Construct: expressed in transfected cells; host or cells: HT-1080 (ATCC CCL-121), stably transduced with lentivirus pLV-UBC-N-HiBiT-BCL-XL-PGK-puro and selected with puromycin
Test Details: HiBiT based degradation assay
Format: cell-based
Experimental Parameters: BCL-XL degradation normalized with DMSO control; HT1080 cells expressing HiBiT-BCL-XL; 24 h
Result Type: Ymin (24 h)

These recorded examples may help you get a feel for the data.
| Compound | Ymin (24 h) |
| --- | --- |
| Cc1c(O[C@H]2CC[C@H](CCCN3CCN(c4ccc5c(C6CCC(=O)NC6=O)nn(C)c5c4)CC3(C)C)CC2)cccc1-c1ccc(N2CCc3cccc(C(=O)Nc4nc5ccccc5s4)c3C2)nc1C(=O)O (some centres unmarked) [Compound 336a] | A (Ymin < 50%) |
| Cc1c(OCCCCCCCN2CCN(c3ccc4c(C5CCC(=O)NC5=O)nn(C)c4c3)CC2)cccc1-c1ccc(N2CCc3cccc(C(=O)Nc4nc5ccccc5s4)c3C2)nc1C(=O)O (centres unmarked) [Compound 137] | A (Ymin < 50%) |
| Cc1c(O[C@H]2CC[C@H](CCC(=O)N3CCN(c4ccc5c(C6CCC(=O)NC6=O)nn(C)c5c4)CC3)CC2)cccc1-c1ccc(N2CCc3cccc(C(=O)Nc4nc5ccccc5s4)c3C2)nc1C(=O)O (some centres unmarked) [Compound 138a] | B (50% ≤ Ymin < 70%) |
| Cc1c(OCCC2CCN(CC3CCN(c4ccc5c(C6CCC(=O)NC6=O)nn(C)c5c4)CC3)CC2)cccc1-c1ccc(N2CCc3cccc(C(=O)Nc4nc5ccccc5s4)c3C2)nc1C(=O)O (centres unmarked) [Compound 258] | A (Ymin < 50%) |

Exercise: What does the data say about its Ymin (24 h)? Entry: Cc1c(OCCCC2CCN(CC(=O)Nc3cccc4c(C5CCC(=O)NC5=O)nn(C)c34)CC2)cccc1-c1ccc(N2CCc3cccc(C(=O)Nc4nc5ccccc5s4)c3C2)nc1C(=O)O (centres unmarked) [Compound 158]
Key: B (50% ≤ Ymin < 70%)
